target: human ether-à-go-go-related gene (hERG) potassium channel (human); assay: primary screen, population patch clamp on CHO cells stably expressing hERG; higher = less effect of the substance;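 also: peak tail current of the secondary pulse compared with the same well before compound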
About 14,000 (4.5%) of roughly 310,000 compounds showed an effect of 50% or more. Effects have a minus sign here. The full list was thinned out, with strong results kept by preference.
outcome.measure: hERG current change (%, negative = inhibition) at 10uM (%)

- compound: "COc1cc(CCC(=O)OCc2ccccc2C#N)cc(OC)c1OC"
  data.value: 7.42
- compound: "Cc1ccc(/C=C2\\C(=N)N3N=C(CC(=O)N4CCCCC4)SC3=NC2=O)cc1"
  data.value: 17.4
- compound: "CCOC(=O)C1=C(C)N=c2s/c(=C\\c3ccc(OCC(=O)O)cc3)c(=O)n2C1c1ccccc1OC (stereo not drawn)"
  data.value: 12.8
- compound: "CN(C)S(=O)(=O)N1CCN(CC(=O)Nc2ccc(F)cc2)CC1"
  data.value: -69.7
- compound: "Cc1ccc(S(=O)(=O)Nc2ccc(-c3nnc(SCC#N)n3C)cc2)cc1"
  data.value: -11.3
- compound: "CC(C)CCN(C(=O)CNC(=O)c1cccs1)C(C(=O)NC1CCCCC1)c1cccnc1 (stereo not drawn)"
  data.value: -36.4
- compound: "O=C(O)CCCCCCCCc1cn(CCc2c[nH]c3ccccc23)nn1"
  data.value: 4.49
- compound: "Cc1ccc(C)c(-n2nnnc2SCC(=O)NCC2CCCO2)c1 (stereo not drawn)"
  data.value: -4.18
- compound: "O=C1c2ccccc2C(=O)N1C(CO)C(O)c1ccc([N+](=O)[O-])cc1 (stereo not drawn)"
  data.value: -5.29

====

As shown below, each of these compounds has a reported hERG current change (%, negative = inhibition) at 10uM value.
biological target: human ether-à-go-go-related gene (hERG) potassium channel (human, UniProt Q12809); assay: primary screen, population patch clamp on CHO cells stably expressing hERG; higher = less effect of the substance;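 also: peak tail current of the secondary pulse compared with the same well before compound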
Sequence (Q12809 whole entry, looked up): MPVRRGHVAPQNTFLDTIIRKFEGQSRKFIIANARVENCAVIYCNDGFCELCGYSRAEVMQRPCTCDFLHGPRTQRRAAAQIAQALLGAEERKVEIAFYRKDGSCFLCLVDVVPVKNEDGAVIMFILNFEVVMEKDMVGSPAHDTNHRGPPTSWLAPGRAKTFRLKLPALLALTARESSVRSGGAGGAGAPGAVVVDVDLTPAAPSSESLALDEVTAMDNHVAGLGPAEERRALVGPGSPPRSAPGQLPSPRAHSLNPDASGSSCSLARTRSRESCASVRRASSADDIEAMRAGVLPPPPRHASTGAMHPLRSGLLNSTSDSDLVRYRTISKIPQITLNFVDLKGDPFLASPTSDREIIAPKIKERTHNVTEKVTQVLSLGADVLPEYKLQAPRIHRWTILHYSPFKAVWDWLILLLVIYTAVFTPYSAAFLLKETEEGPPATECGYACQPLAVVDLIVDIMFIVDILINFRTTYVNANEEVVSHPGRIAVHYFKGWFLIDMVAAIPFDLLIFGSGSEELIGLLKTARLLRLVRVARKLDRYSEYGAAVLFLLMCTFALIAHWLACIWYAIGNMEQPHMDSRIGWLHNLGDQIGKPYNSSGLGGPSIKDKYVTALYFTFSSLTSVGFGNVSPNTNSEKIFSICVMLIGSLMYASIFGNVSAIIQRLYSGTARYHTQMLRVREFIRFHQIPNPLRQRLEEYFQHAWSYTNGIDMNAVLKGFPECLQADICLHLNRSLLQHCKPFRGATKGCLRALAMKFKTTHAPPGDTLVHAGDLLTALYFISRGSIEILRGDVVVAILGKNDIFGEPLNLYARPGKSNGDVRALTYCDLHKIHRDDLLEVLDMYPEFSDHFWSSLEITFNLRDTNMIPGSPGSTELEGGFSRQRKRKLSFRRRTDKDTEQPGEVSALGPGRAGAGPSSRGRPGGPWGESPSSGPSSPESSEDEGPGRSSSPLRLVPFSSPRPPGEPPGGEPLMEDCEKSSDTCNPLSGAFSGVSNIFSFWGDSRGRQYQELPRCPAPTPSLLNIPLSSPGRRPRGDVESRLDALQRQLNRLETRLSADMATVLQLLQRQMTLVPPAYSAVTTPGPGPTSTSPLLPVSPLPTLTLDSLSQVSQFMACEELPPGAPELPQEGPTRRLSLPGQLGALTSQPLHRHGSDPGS
Screen size: about 310,000 compounds; about 14,000 (4.5%) showed an effect of 50% or more. Effects have a minus sign here. Only a selection was taken, and strong results are over-represented in it overall.
outcome.measure: hERG current change (%, negative = inhibition) at 10uM

- compound: "CC(C)=CCCC(C)CN1CCC(n2nccc2NC(=O)C2CCCC2)CC1 (centres unmarked)"
  tested.system: "human ether-à-go-go-related gene (hERG) potassium channel (human, UniProt Q12809)"
  data.value: "-70.8%"
- compound: "CCOc1ccc2nc(NC3=NC(C)(C)C=C(C)N3)nc(C)c2c1"
  tested.system: "human ether-à-go-go-related gene (hERG) potassium channel (human, UniProt Q12809)"
  data.value: "-47.8%"
- compound: "CCOC(=O)c1cccc(S(=O)(=O)N2CCCC2)c1"
  tested.system: "human ether-à-go-go-related gene (hERG) potassium channel (human, UniProt Q12809)"
  data.value: "8.7%"
- compound: "O=C(NCc1ccccc1)c1ccc(Br)o1"
  tested.system: "human ether-à-go-go-related gene (hERG) potassium channel (human, UniProt Q12809)"
  data.value: "8.67%"
- compound: "COc1ccc(CCNC(=O)c2cc(-c3ccncc3)nc3c(Cl)cccc23)cc1OC"
  tested.system: "human ether-à-go-go-related gene (hERG) potassium channel (human, UniProt Q12809)"
  data.value: "-66.9%"
- compound: "O=C(Nc1ccnn1C1CCN(CC(O)CO)CC1)C1CCCC1 (centres unmarked)"
  tested.system: "human ether-à-go-go-related gene (hERG) potassium channel (human, UniProt Q12809)"
  data.value: "11.4%"
- compound: "CSc1ccc(CCCCCCOC(=O)C(C)(C)C)cc1"
  tested.system: "human ether-à-go-go-related gene (hERG) potassium channel (human, UniProt Q12809)"
  data.value: "3.95%"
- compound: "CC(/C=N/NC(=O)CNc1n[nH]c(=O)[nH]c1=O)c1ccccc1 (centres unmarked)"
  tested.system: "human ether-à-go-go-related gene (hERG) potassium channel (human, UniProt Q12809)"
  data.value: "2.52%"
- compound: "Cc1ccc(C(=O)C2CCN(S(=O)(=O)c3c(C)noc3C)CC2)cc1"
  tested.system: "human ether-à-go-go-related gene (hERG) potassium channel (human, UniProt Q12809)"
  data.value: "-67.3%"
- compound: "C=CCNCCCCOc1c(Cl)cc(C)cc1Br.O=C(O)C(=O)O"
  tested.system: "human ether-à-go-go-related gene (hERG) potassium channel (human, UniProt Q12809)"
  data.value: "-31.7%"
- compound: "COc1ccc(N2C(=O)C3C(c4ccc(OC)cc4O)NC(Cc4ccccc4)(C(=O)O)C3C2=O)cc1 (centres unmarked)"
  tested.system: "human ether-à-go-go-related gene (hERG) potassium channel (human, UniProt Q12809)"
  data.value: "19.5%"
- compound: "CN1CCN(CCC(C#N)(c2ccccc2)c2ccccc2)CC1.Cl"
  tested.system: "human ether-à-go-go-related gene (hERG) potassium channel (human, UniProt Q12809)"
  data.value: "-62.9%"
- compound: "COc1ccc(CCNC(=O)c2cc3c(=O)n4ccccc4nc3n(C3CCCCC3)c2=N)cc1"
  tested.system: "human ether-à-go-go-related gene (hERG) potassium channel (human, UniProt Q12809)"
  data.value: "-81.3%"
- compound: "CC1=CC(C)(C)N=C(Nc2nc(C)c3cc(C)cc(C)c3n2)N1"
  tested.system: "human ether-à-go-go-related gene (hERG) potassium channel (human, UniProt Q12809)"
  data.value: "-63.5%"
- compound: "COc1cc(/C=C(\\C#N)C(=O)NCC2CCCO2)ccc1OCC(N)=O (centres unmarked)"
  tested.system: "human ether-à-go-go-related gene (hERG) potassium channel (human, UniProt Q12809)"
  data.value: "28.7%"
- compound: "CCS(=O)(=O)Nc1cccc(C2=NN(S(C)(=O)=O)C(c3cccs3)C2)c1 (centres unmarked)"
  tested.system: "human ether-à-go-go-related gene (hERG) potassium channel (human, UniProt Q12809)"
  data.value: "-11.1%"
- compound: "COc1ccc(CCNC(=O)c2cnc3ccccn3c2=O)cc1"
  tested.system: "human ether-à-go-go-related gene (hERG) potassium channel (human, UniProt Q12809)"
  data.value: "-22.3%"
- compound: "COc1ccc(-c2nc(SC(CC(=O)NCCN3CCOCC3)c3cccs3)n[nH]2)cc1 (centres unmarked)"
  tested.system: "human ether-à-go-go-related gene (hERG) potassium channel (human, UniProt Q12809)"
  data.value: "1.08%"
- compound: "COc1ccc(CNC(=O)CN2CCN(S(=O)(=O)c3cccs3)CC2)cc1OC"
  tested.system: "human ether-à-go-go-related gene (hERG) potassium channel (human, UniProt Q12809)"
  data.value: "1.64%"
- compound: "COc1ccc(C(=O)NCc2ncccc2C)cc1OC1CCN(C(C)=O)CC1"
  tested.system: "human ether-à-go-go-related gene (hERG) potassium channel (human, UniProt Q12809)"
  data.value: "9.32%"
- compound: "CSc1nc(=S)n(-c2ccccc2)c(C)c1C(C)=O"
  tested.system: "human ether-à-go-go-related gene (hERG) potassium channel (human, UniProt Q12809)"
  data.value: "11.9%"
- compound: "COC(CNc1nc(SC)nc2sc3c(c12)CCN(C)C3)OC"
  tested.system: "human ether-à-go-go-related gene (hERG) potassium channel (human, UniProt Q12809)"
  data.value: "-52.5%"
- compound: "CC(C)=CCCC(C)CN1CCC(n2nccc2NC(=O)c2cccnc2)CC1 (centres unmarked)"
  tested.system: "human ether-à-go-go-related gene (hERG) potassium channel (human, UniProt Q12809)"
  data.value: "-52.1%"
- compound: "CCCc1cc(C(=O)NCc2ccco2)no1"
  tested.system: "human ether-à-go-go-related gene (hERG) potassium channel (human, UniProt Q12809)"
  data.value: "9.57%"
- compound: "CNC(=S)NNC(=O)c1cccn(Cc2cccc(C(F)(F)F)c2)c1=O"
  tested.system: "human ether-à-go-go-related gene (hERG) potassium channel (human, UniProt Q12809)"
  data.value: "22.2%"
- compound: "COc1cccc(C(=O)Nc2ccc(NC(=O)Cc3ccccc3)cc2)c1"
  tested.system: "human ether-à-go-go-related gene (hERG) potassium channel (human, UniProt Q12809)"
  data.value: "-24.1%"
- compound: "CCOCCCNc1ncnc2c1nc1n2CCCC1"
  tested.system: "human ether-à-go-go-related gene (hERG) potassium channel (human, UniProt Q12809)"
  data.value: "17.2%"
- compound: "COc1ccc(CCNC(=O)c2cccc3ccccc23)cc1OC"
  tested.system: "human ether-à-go-go-related gene (hERG) potassium channel (human, UniProt Q12809)"
  data.value: "7.77%"
- compound: "CCN(CC)CCNc1nc(SC)nc2sc3c(c12)CCN(C)C3"
  tested.system: "human ether-à-go-go-related gene (hERG) potassium channel (human, UniProt Q12809)"
  data.value: "-6.12%"
- compound: "CCCc1nn2c(=O)cc(CSCC(=O)Nc3ccccc3OC)nc2s1"
  tested.system: "human ether-à-go-go-related gene (hERG) potassium channel (human, UniProt Q12809)"
  data.value: "14.8%"
- compound: "CC(C)CCN1CCC(n2nccc2NC(=O)c2ccc3c(c2)OCO3)CC1"
  tested.system: "human ether-à-go-go-related gene (hERG) potassium channel (human, UniProt Q12809)"
  data.value: "-5.16%"
- compound: "CCOC(=O)C1(c2ccccc2)CCN(CCC(C#N)(c2ccccc2)c2ccccc2)CC1.Cl"
  tested.system: "human ether-à-go-go-related gene (hERG) potassium channel (human, UniProt Q12809)"
  data.value: "-25%"
- compound: "COCc1cc(C)nc(SCC(=O)Nc2cccc(C)c2)c1C#N"
  tested.system: "human ether-à-go-go-related gene (hERG) potassium channel (human, UniProt Q12809)"
  data.value: "14.2%"
- compound: "CC(C)OCCCNc1ncnc2c1nc1n2CCCC1"
  tested.system: "human ether-à-go-go-related gene (hERG) potassium channel (human, UniProt Q12809)"
  data.value: "-72.6%"
- compound: "CCN(CCCNS(=O)(=O)c1cc(-c2cc(C)no2)ccc1C)Cc1ccccc1"
  tested.system: "human ether-à-go-go-related gene (hERG) potassium channel (human, UniProt Q12809)"
  data.value: "-61.3%"
- compound: "Cc1noc(C)c1S(=O)(=O)N1CCC(C(=O)O)CC1"
  tested.system: "human ether-à-go-go-related gene (hERG) potassium channel (human, UniProt Q12809)"
  data.value: "-3.88%"
- compound: "CC(=O)c1c(N2CCOCC2)nc(=S)n(-c2ccc([N+](=O)[O-])cc2)c1C"
  tested.system: "human ether-à-go-go-related gene (hERG) potassium channel (human, UniProt Q12809)"
  data.value: "-46.2%"
- compound: "COc1ccc([C@H]2CC(=O)C=C(c3cc4ccccc4c4ccccc34)C2)cc1"
  tested.system: "human ether-à-go-go-related gene (hERG) potassium channel (human, UniProt Q12809)"
  data.value: "13.6%"
- compound: "Cc1ccc2nc(CCl)[n+]([O-])c(-c3ccccc3)c2c1"
  tested.system: "human ether-à-go-go-related gene (hERG) potassium channel (human, UniProt Q12809)"
  data.value: "1.16%"
- compound: "CCOC(=O)c1[nH]c(C)c(C(=O)OCCN2C(=O)c3ccccc3C2=O)c1C"
  tested.system: "human ether-à-go-go-related gene (hERG) potassium channel (human, UniProt Q12809)"
  data.value: "-1.16%"
- compound: "O=C(COc1ccccc1)Nc1ccccc1N1CCCCC1"
  tested.system: "human ether-à-go-go-related gene (hERG) potassium channel (human, UniProt Q12809)"
  data.value: "2.27%"
